# target.entity: T1, recombinant cynomolgus monkey CD112R antigen (cynomolgus monkey, UniProt A0A2K5WVV8 1-322)
# T1 construct: bought
# T1 sequence: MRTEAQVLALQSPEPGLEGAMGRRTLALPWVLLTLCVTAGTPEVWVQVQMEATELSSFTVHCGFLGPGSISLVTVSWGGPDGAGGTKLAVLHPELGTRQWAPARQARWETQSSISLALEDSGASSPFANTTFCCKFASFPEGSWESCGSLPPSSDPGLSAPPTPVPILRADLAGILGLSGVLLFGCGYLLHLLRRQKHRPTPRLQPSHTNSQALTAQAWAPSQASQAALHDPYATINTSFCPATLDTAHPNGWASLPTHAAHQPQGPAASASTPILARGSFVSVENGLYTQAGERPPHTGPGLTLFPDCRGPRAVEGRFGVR
# test.details: ELISA, coated cynomolgus monkey CD112R
Recorded measurements of EC50, one per entry
Return type: number; implicit unit ng/mL.

Consider the worked cases shown below.
- binder: "Chi-71 (antibody, V domains shown, chimeric) VH: DVQLVESGGGLVKLGGSLKLSCVASGFTFSSYHMSWIRQTPEKRLELVAAINSNDINTYYLDTVKGRFTISRDIAKNTLHLQMSSLKSEDTALYYCARHEDYYGFAMDYWGQGTSVTVSS VL: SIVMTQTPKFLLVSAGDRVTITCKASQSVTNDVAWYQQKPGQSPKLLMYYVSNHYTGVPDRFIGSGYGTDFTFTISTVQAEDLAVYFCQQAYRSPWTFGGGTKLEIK"
  readout.kind: "EC50"
  reported.value: 4.42
- binder: "Chi-61 (antibody, V domains shown, chimeric) VH: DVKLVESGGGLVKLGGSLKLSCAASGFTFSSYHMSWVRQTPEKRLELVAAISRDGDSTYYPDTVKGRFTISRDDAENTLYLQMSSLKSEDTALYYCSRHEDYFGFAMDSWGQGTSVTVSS VL: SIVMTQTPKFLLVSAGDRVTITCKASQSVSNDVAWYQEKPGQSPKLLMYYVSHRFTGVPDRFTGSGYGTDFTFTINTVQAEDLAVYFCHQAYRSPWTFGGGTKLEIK"
  readout.kind: "EC50"
  reported.value: 5

Now, please, on to the next binder.
Query string: Identify measured EC50 corresponding to Chi-69 (antibody, V domains shown, chimeric) VH: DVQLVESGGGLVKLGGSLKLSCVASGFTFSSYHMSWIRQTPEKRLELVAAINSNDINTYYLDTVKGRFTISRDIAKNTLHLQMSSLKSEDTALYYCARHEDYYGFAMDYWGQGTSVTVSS VL: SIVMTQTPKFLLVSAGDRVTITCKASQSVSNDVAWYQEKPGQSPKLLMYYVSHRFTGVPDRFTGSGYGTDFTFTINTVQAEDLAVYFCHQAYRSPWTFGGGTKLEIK
Result string: 4.74
